Molecular target: T1, BCMA on BCMA-positive NCI-H929, ARP-1 and U266B1 cells (human, UniProt Q02223 1-184)
T1 sequence: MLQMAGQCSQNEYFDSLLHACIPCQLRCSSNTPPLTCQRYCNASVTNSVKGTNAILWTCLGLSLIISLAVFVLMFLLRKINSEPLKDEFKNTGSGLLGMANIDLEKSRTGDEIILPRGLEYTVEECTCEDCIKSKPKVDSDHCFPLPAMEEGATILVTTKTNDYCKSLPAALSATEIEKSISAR
Test: cell-based or functional assay
QUANTITY_KIND: ARP-1, SC239-conjugated 2° antibody cell killing, Span (%)
Numeric answer only, unit % assumed.

Query: Sample 10H1 (antibody, V domains shown, chicken HybriFree-derived antibody; also called Antibody 45) VH: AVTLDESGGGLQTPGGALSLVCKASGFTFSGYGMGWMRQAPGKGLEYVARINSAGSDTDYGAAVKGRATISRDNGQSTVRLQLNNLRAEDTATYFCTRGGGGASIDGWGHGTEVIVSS VL: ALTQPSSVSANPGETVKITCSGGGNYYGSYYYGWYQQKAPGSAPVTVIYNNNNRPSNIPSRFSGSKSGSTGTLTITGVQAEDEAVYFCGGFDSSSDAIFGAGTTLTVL — what was its ARP-1, SC239-conjugated 2° antibody cell killing, Span?
Reply: 88

Query: Sample 9H1 (antibody, V domains shown, chicken HybriFree-derived antibody; also called Antibody 44) VH: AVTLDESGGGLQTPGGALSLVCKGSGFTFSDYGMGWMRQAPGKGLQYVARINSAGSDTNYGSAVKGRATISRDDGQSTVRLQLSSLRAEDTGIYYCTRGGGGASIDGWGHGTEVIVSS VL: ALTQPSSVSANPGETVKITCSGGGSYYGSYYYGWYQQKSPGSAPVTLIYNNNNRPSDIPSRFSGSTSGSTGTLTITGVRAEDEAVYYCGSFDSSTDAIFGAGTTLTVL — what was its ARP-1, SC239-conjugated 2° antibody cell killing, Span?
Reply: 74

Query: Sample 9A5 (antibody, V domains shown, chicken HybriFree-derived antibody; also called Antibody 42) VH: AVTLDESGGGLQTPGGAVSLVCKASGFSISDYGMGWMRQAPGKGLQYVARIDHDGRYTDYGAVVKGRATISRDNGQSTVRLQLNNLRAEDTGTYYCTRGGGAASIDTWGHGTEVIVSS VL: ALTQPSSVSANPGETVKITCSGGGNYVGGYYYGWYQQKAPGSALVTLIYNNNNRPSNIPSRFSGSTSGSTSTLTITGVRAEDEAVYFCGSFDSSTDAIFGAGTTLTVL — what was its ARP-1, SC239-conjugated 2° antibody cell killing, Span?
Reply: 93

Query: Sample 10F4 (antibody, V domains shown, chicken HybriFree-derived antibody; also called Antibody 37) VH: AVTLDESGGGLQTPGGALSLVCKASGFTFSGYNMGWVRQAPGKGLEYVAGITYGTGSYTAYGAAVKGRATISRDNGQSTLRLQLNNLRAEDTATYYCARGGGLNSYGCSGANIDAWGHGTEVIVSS VL: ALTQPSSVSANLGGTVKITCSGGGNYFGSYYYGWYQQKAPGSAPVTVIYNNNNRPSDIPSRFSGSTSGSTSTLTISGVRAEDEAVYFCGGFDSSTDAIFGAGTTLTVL — what was its ARP-1, SC239-conjugated 2° antibody cell killing, Span?
Reply: 87

Query: Sample 10G5 (antibody, V domains shown, chicken HybriFree-derived antibody; also called Antibody 31) VH: AVTLDESGGGLQTPGGVLSLVCKASGFTFSSFNMFWVRQAPGKGLEWVAYISNDGSSTSYGPAVKGRATISRDNGQSTVRLQLNNLRAEDTATYFCAKTTCIGSGGCIDTWGHGTEVIVSS VL: ALTQPSSVSANPGETVKITCSGGNYDYGWYQQKSPGSAPVTLIYYNNKRPSDIPSRFSGSKSGSTGTLTITGVQAEDEAIYYCANVDSTDDVFGAGTTLTVL — what was its ARP-1, SC239-conjugated 2° antibody cell killing, Span?
Reply: 82
